Experiment: Cytotoxicity against MDCK cells
Format: toxicity, cell-based, Canis lupus familiaris
Conditions: dog, read-out: TC50 (the source's name)
Answer each item with its documented CC50.
Numbers only, in µM.

Reference set (4 entries):
INSERT INTO assay_data (compound, observed_property, readout_units, recorded_result) VALUES
  ('COc1cccc(CN(Cc2ccc([N+](=O)[O-])s2)CC2CCN(C(=O)C3CC3)C2)c1 (stereo unspecified)', 'CC50', 'µM', 15.4),
  ('O=C(C1CC1)N1CCC(CN(Cc2cccc(Cl)c2)Cc2ccc([N+](=O)[O-])s2)C1 (stereo unspecified)', 'CC50', 'µM', 22.2),
  ('CCOC(=O)N1CCC(CN(Cc2ccc(Cl)cc2)Cc2ccc([N+](=O)[O-])s2)C1 (stereo unspecified)', 'CC50', 'µM', 38.5),
  ('O=C(C1CC1)N1CCC(CN(Cc2cc(Cl)cc(Cl)c2)Cc2ccc([N+](=O)[O-])s2)C1 (stereo unspecified)', 'CC50', 'µM', 12.8);

Please supply CC50 for each of the following items, keeping them in order.
1. COc1ccc(CN(Cc2ccc([N+](=O)[O-])s2)CC2CCN(C(=O)C3CC3)C2)cc1OC (stereo unspecified)
2. O=C(C1CC1)N1CCC(CN(Cc2ccc([N+](=O)[O-])s2)Cc2ccc(F)cc2F)C1 (stereo unspecified)
3. COc1ccccc1CN(Cc1ccc([N+](=O)[O-])s1)CC1CCN(C(=O)C2CC2)C1 (stereo unspecified)

1. 32
2. 38.5
3. 38.5

----------
Answer each item with its documented remaining at 0 min, 1 µM.
Test: Metabolic stability in human liver microsomes assessed as compound remaining at 1 uM measured immediately in presence of NADPH/UDPGA by LC-MS/MS analysis
Format: ADME, Microsome
Conditions: read-out: Stability
Give bare numbers, in %.

INSERT INTO measurements (compound, recorded_result) VALUES
  ('O=C(C1CC1)N1CCC(CN(Cc2ccc(Cl)c(Cl)c2)Cc2ccc([N+](=O)[O-])s2)C1 (stereo not drawn)', 100),
  ('O=C(C1CC1)N1CCC(CN(Cc2ccc([N+](=O)[O-])s2)Cc2ccc(F)cc2F)C1 (stereo not drawn)', 100);

Would you kindly look at the next entry?
Query: remaining at 0 min, 1 µM; subject: CCOC(=O)N1CCC(CN(Cc2ccc(Cl)cc2)Cc2ccc([N+](=O)[O-])s2)C1 (stereo not drawn) [SR9009]
100

----------
Test: Metabolic stability in human liver microsomes assessed as compound remaining at 1 uM measured after 60 mins by LC-MS/MS analysis
Format: ADME, Microsome
Conditions: read-out: Stability
Answer each item with its documented remaining at 1 h, 1 µM.
Give bare numbers, in %.

Reference set (2 entries):
INSERT INTO assay_data (compound, readout_units, recorded_result) VALUES
  ('O=C(C1CC1)N1CCC(CN(Cc2ccc([N+](=O)[O-])s2)Cc2ccc(F)cc2F)C1 (stereo not drawn)', '%', 108),
  ('O=C(C1CC1)N1CCC(CN(Cc2ccc(Cl)c(Cl)c2)Cc2ccc([N+](=O)[O-])s2)C1 (stereo not drawn)', '%', 90.1);

Would you kindly look at the next entry?
Query: remaining at 1 h, 1 µM; subject: CCOC(=O)N1CCC(CN(Cc2ccc(Cl)cc2)Cc2ccc([N+](=O)[O-])s2)C1 (stereo not drawn) [SR9009]
103
